# Tested on: Mus musculus
# method: Percent reduction in spleen weight in mice as compared to infected untreated controls at 200 mg/kg
# Assay type: functional
This section presents compounds with their documented Reduction values.
assay metric: Reduction (%)

[[record]]
cpd_smiles = "CCNCCCOc1ccc2cc3ccc(OCCCNCC)cc3nc2c1.Cl.O"
observed_measurement = 78

[[record]]
cpd_smiles = "CCN(CC)CCOc1ccc2cc3cc([N+](=O)[O-])c(OCCN(CC)CC)c(Cl)c3nc2c1Cl"
observed_measurement = 61

[[record]]
cpd_smiles = "CC(C)NCCOc1ccc2cc3ccc(OCCNC(C)C)cc3nc2c1.Cl"
observed_measurement = 96

[[record]]
cpd_smiles = "CCN(CC)CCOc1ccc2cc3ccc(OCCN(CC)CC)c(Br)c3nc2c1Br"
observed_measurement = 92

[[record]]
cpd_smiles = "CCCNCCCOc1ccc2cc3ccc(OCCCNCCC)cc3nc2c1.Cl.O"
observed_measurement = 96

[[record]]
cpd_smiles = "CN(C)CCCOc1ccc2cc3ccc(OCCCN(C)C)cc3nc2c1.Cl.O"
observed_measurement = 54


---

# System: Mus musculus
# method: Efficacy against a lethal virus challenge with an interferon sensitive virus, columbia SK was evaluated 14 days postinfection (oral dosing) as number of mice survived out of 15 tested
# Format: functional
Recorded Survivors determines the label; the label ranges are 1: < 3; 2: ≥ 3 and < 7; 3: ≥ 7

[[record]]
cpd_smiles = "CNCCCOc1ccc2cc3ccc(OCCCNC)cc3nc2c1.Cl.O"
study_target = "Mus musculus"
cat = 3

[[record]]
cpd_smiles = "Cl.NCCOc1ccc2cc3ccc(OCCN)cc3nc2c1.O"
study_target = "Mus musculus"
cat = 1

[[record]]
cpd_smiles = "CCN(CC)CCOc1ccc2cc3cc([N+](=O)[O-])c(OCCN(CC)CC)c(Cl)c3nc2c1Cl"
study_target = "Mus musculus"
cat = 1

[[record]]
cpd_smiles = "CN(C)CCCCOc1ccc2cc3ccc(OCCCCN(C)C)cc3nc2c1.Cl.O"
study_target = "Mus musculus"
cat = 1

[[record]]
cpd_smiles = "CCN(CC)CCOc1ccc2cc3ccc(OCCN(CC)CC)cc3nc2c1.Cl.O"
study_target = "Mus musculus"
cat = 3

[[record]]
cpd_smiles = "CCN(CC)CCOc1cc2nc3cc(OCCN(CC)CC)c(C)cc3cc2cc1C.Cl.O"
study_target = "Mus musculus"
cat = 2

[[record]]
cpd_smiles = "CN(C)CCCOc1ccc2cc3ccc(OCCCN(C)C)cc3nc2c1.Cl.O"
study_target = "Mus musculus"
cat = 3

[[record]]
cpd_smiles = "CNCCOc1ccc2cc3ccc(OCCNC)cc3nc2c1.Cl"
study_target = "Mus musculus"
cat = 1

[[record]]
cpd_smiles = "CCN(CC)CCOc1ccc2cc3cc([N+](=O)[O-])c(OCCN(CC)CC)c(Br)c3nc2c1Br"
study_target = "Mus musculus"
cat = 2

[[record]]
cpd_smiles = "Cl.c1cc2cc3ccc(OCCN4CCCCC4)cc3nc2cc1OCCN1CCCCC1"
study_target = "Mus musculus"
cat = 2

[[record]]
cpd_smiles = "CCCNCCCOc1ccc2cc3ccc(OCCCNCCC)cc3nc2c1.Cl.O"
study_target = "Mus musculus"
cat = 3

[[record]]
cpd_smiles = "CCN(CC)CCOc1ccc2cc3ccc(OCCN(CC)CC)c(Br)c3nc2c1Br"
study_target = "Mus musculus"
cat = 2

[[record]]
cpd_smiles = "c1cc2cc3ccc(OCCN4CCCC4)cc3nc2cc1OCCN1CCCC1"
study_target = "Mus musculus"
cat = 2

[[record]]
cpd_smiles = "CN1CCN(CCOc2ccc3cc4ccc(OCCN5CCN(C)CC5)cc4nc3c2)CC1"
study_target = "Mus musculus"
cat = 1

[[record]]
cpd_smiles = "CCN(CC)CCOc1ccc2cc3ccc(OCCN(CC)CC)c([N+](=O)[O-])c3nc2c1[N+](=O)[O-]"
study_target = "Mus musculus"
cat = 1

[[record]]
cpd_smiles = "CCCNCCOc1ccc2cc3ccc(OCCNCCC)cc3nc2c1.Cl.O"
study_target = "Mus musculus"
cat = 3


---

# Test system: Mus musculus
# method: Efficacy against a lethal virus challenge with an interferon sensitive virus, columbia SK was evaluated 14 days postinfection (oral dosing) as number of mice survived out of 15 tested
# Assay type: functional
This section presents molecules with their documented Survivors values.
assay metric: Survivors

[[record]]
cpd_smiles = "CC(C)NCCOc1ccc2cc3ccc(OCCNC(C)C)cc3nc2c1.Cl"
assay_metric = "Survivors"
observed_measurement = 15

[[record]]
cpd_smiles = "CCN(CC)CCCOc1ccc2cc3ccc(OCCCN(CC)CC)cc3nc2c1.Cl.O"
assay_metric = "Survivors"
observed_measurement = 13

[[record]]
cpd_smiles = "Cl.O.c1cc2cc3ccc(OCCCN4CCCCC4)cc3nc2cc1OCCCN1CCCCC1"
assay_metric = "Survivors"
observed_measurement = 9


---

# System: Mus musculus
# method: Efficacy against a lethal virus challenge with an interferon sensitive virus, columbia SK was evaluated 14 days postinfection (oral dosing) as number of mice survived out of 15 tested
# Assay type: functional
assay metric: Survivors

[[record]]
cpd_smiles = "CCCCNCCOc1ccc2cc3ccc(OCCNCCCC)cc3nc2c1.Cl.O"
observed_measurement = 7

[[record]]
cpd_smiles = "CCN(CC)CCOc1ccc2cc3ccc(OCCN(CC)CC)c(Cl)c3nc2c1Cl"
observed_measurement = 7

[[record]]
cpd_smiles = "CCNCCOc1ccc2cc3ccc(OCCNCC)cc3nc2c1.Cl.O"
observed_measurement = 7

[[record]]
cpd_smiles = "CCN(CC)CCOc1cc([N+](=O)[O-])c2cc3cc([N+](=O)[O-])c(OCCN(CC)CC)c(Cl)c3nc2c1Cl"
observed_measurement = 3

[[record]]
cpd_smiles = "CCNCCCOc1ccc2cc3ccc(OCCCNCC)cc3nc2c1.Cl.O"
observed_measurement = 7

[[record]]
cpd_smiles = "Cl.OCCNCCOc1ccc2cc3ccc(OCCNCCO)cc3nc2c1"
observed_measurement = 3


The reported numbers originate from ChEMBL document CHEMBL1122410.
